Provenance of the data: patent US5032398A

# SYSTEM: pertussis toxin (Bordetella pertussis, UniProt P04977)
# Sequence (P04977 35-269 limits assumed): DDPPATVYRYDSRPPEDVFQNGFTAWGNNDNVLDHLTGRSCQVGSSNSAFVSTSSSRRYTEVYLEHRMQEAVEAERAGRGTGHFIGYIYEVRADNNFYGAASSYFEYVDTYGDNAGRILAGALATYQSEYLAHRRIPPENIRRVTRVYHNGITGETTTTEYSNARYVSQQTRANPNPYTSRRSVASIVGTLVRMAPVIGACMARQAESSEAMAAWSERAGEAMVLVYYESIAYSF
# ASSAY_TEXT: Activation constants (A0.5) of polyphosphates by NADase assay
# Type: biochemical
# RUN_PARAMETERS: in the presence of a mild detergent; FIGS. 1A and 1B
fraction of the ATP effect listing for selected compounds.
// print number alone

Could you share which fraction of the ATP effect value was measured for O=P(O)(O)OP(=O)(O)OP(=O)(O)OP(=O)(O)O [tetrapoly-P, tetrapolyphosphate] ?
0.4

###

Emax at 1000 µM listing for selected molecules.
# SYSTEM: pertussis toxin (Bordetella pertussis, UniProt P04977)
# ASSAY_TEXT: Screen of compounds at 1 mM for stimulation of the NADase activity of the toxin (Example Three)
# Format: biochemical
# RUN_PARAMETERS: compound 1 mM; relative to 1 mM ATP; toxin preincubated with 20 mM DTT and 2% CHAPS; 3 h at 37° C; average ± half range of two trials; read-out: Fractional Activation
Please give a number only; it is taken to be in %.

Below, each entry is followed by its recorded Emax at 1000 µM result.
> print(dat)
                                   molecule  outcome.measure  unit.label  measured.result
1  Nc1ncnc2c1ncn2[C@@H]1O[C@H](COP(=O)(O)OP(=O)(O)O)[C@@H](O)[C@H]1O [ADP]  Emax at 1000 µM           %              107
2  Nc1ccn([C@@H]2O[C@H](COP(=O)(O)OP(=O)(O)OP(=O)(O)O)[C@@H](O)[C@H]2O)c(=O)n1 [CTP]  Emax at 1000 µM           %              103
3  Nc1nc2c(ncn2[C@@H]2O[C@H](COP(=O)(O)OP(=O)(O)OP(=O)(O)O)[C@@H](O)[C@H]2O)c(=O)[nH]1 [GTP]  Emax at 1000 µM           %               87

The record that follows has no Emax at 1000 µM shown yet.
Could you share which Emax at 1000 µM value was measured for O=c1ccn([C@@H]2O[C@H](COP(=O)(O)OP(=O)(O)OP(=O)(O)O)[C@@H](O)[C@H]2O)c(=O)[nH]1 [UTP] ?
92

###

# SYSTEM: pertussis toxin (Bordetella pertussis)
# ASSAY_TEXT: Inactivation of NADase activity by sulfhydryl reagents, 6 minutes or 18 hours at 0-4° (Example Eight)
# Format: biochemical
# RUN_PARAMETERS: first incubation: ATP, DTT, CHAPS; 18 hours at 0-4°
OUTCOME_MEASURE: NADase activity (pmol per μg per hour)
Please give a number only; it is taken to be in pmol per μg per hour.

Below, each entry is followed by its recorded NADase activity result.
> print(dat)
                              molecule  outcome.measure            unit.label  measured.result
1          NC(=O)CCl [chloroacetamide]  NADase activity  pmol per μg per hour               35
2  CCN1C(=O)C=CC1=O [N-ethylmaleimide]  NADase activity  pmol per μg per hour               10
3            O=C(O)CCl [chloroacetate]  NADase activity  pmol per μg per hour               85

Could you share which NADase activity value was measured for O=C(O)CI [iodoacetate] ?
3
